test system: DU-145; assay: NCI tumour cell line growth inhibition, 48 h
Active and inactive are the calls of the source. No stated cut-off is given here; in the data, active = GI50 up to about 1.1 µM and inactive = higher.
observation.type: GI50

The examples below pair each entry with its known result.
1. CC(C)(C)OC(=O)N1N=CCC1c1ccccc1 (stereo not drawn) : > 100 µM (inactive)
2. CCOC(=O)/C=C(\C(=O)OCC)n1ccc(=O)n(Cc2cnnn2COCCOC(C)=O)c1=O : 18.8 µM (inactive)
3. COC(=O)c1ccccc1NC(=O)/C(=N\NC(C)(C)C)C(C#N)c1nc(-c2ccc([N+](=O)[O-])cc2)cs1 (stereo not drawn) : > 100 µM (inactive)
4. O=C(c1ccc2ccccc2c1)C1(I)S(=O)(=O)OCCOS1(=O)=O : > 100 µM (inactive)
5. CC(=C(c1ccccc1)c1ccccc1)N1C(=O)CC(=O)N1C : > 100 µM (inactive)

// input: 5 compounds below; output: GI50 for each
1. CCCCCCCCCCCCCC(=O)OCC(CCS(=O)(=O)O[C@H]1CC[C@@]2(C)C(=CC[C@@H]3C2CC[C@]2(C)C(=O)CCC32)C1)OC(=O)CCCCCCCCCCCCC (stereo partly drawn)
2. O=C1c2ccccc2-c2ccc(/N=N/c3c(O)ccc4ccccc34)cc21
3. CCC1(CC)C(=O)CC[C@@]2(C)C1=CC[C@H]1[C@@H]3CC[C@H](O)[C@@]3(C)CC[C@@H]12
4. COc1ccccc1C1Nn2c(nc3ccccc3c2=O)N1c1ccc(C)cc1 (stereo not drawn)
5. O=S1(=O)OCCOS(=O)(=O)C1(F)Cc1ccccc1

Out:
1: > 100 µM (inactive); 2: > 100 µM (inactive); 3: 33.8 µM (inactive); 4: 11 µM (inactive); 5: > 100 µM (inactive)

// input: 5 compounds below; output: GI50 for each
1. COc1cc(C(N)=O)cc(NC(=O)/C=C/c2ccccc2)c1OC
2. C=C(C)CNCC(=C)C.Oc1c(Cl)c(Cl)c(Cl)c(Cl)c1Cl
3. FC(F)(F)C1(C(F)(F)F)O[Si]2(OC(C(F)(F)F)(C(F)(F)F)c3ccccc32)c2ccccc21
4. OC1CSCCCSCCSCCCSC1
5. Cc1ccnc2nc(N)ccc12

Out:
> 100 µM (inactive)
15.2 µM (inactive)
15.4 µM (inactive)
> 100 µM (inactive)
> 100 µM (inactive)

// input: 3 compounds below; output: GI50 for each
1. CC(=O)N1NC(c2ccccc2)=NC(=O)C1c1cc(C)c(O)c(C)c1 (stereo not drawn)
2. C=C1CCCCCCCCC/C=C/1SCCCSC
3. O/N=C1\CCc2cc3c(cc21)CCC3

Out:
1: 22.7 µM (inactive); 2: > 100 µM (inactive); 3: > 100 µM (inactive)

----------
test system: OVCAR-8; assay: NCI tumour cell line growth inhibition, 48 h
Active and inactive are the calls of the source. No stated cut-off is given here; in the data, active = GI50 up to about 1.1 µM and inactive = higher.
Return exactly one item of label 1 (active), label 0 (inactive)

1. C[S+](C)CC1OC(n2cnc3c(N)ncnc32)C(O)C1O (centres undefined) : label 0

Turning to the following compound.
In: Recorded call for COc1ccccc1N1C(=O)/C(=C/c2ccc(N(CCC#N)CCC#N)cc2C)N=C1c1cc([N+](=O)[O-])ccc1Cl ?
Out: label 0

----------
tested on: BT-549; test: NCI tumour cell line growth inhibition, 48 h
Calls of active or inactive are those of the source. Cut-off read from the data, not from the text of the source: active = GI50 up to about 1.1 µM and inactive = higher.
Return exactly one item of active, inactive

For orientation, consider the following solved cases.
1. N=C1OC(CN2CCN(c3ccccc3)CC2)CN1C(=O)Nc1ccccc1 (configuration not stated) : inactive
2. C/C(=N\Nc1nc2ccccc2o1)c1cccc[n+]1[O-] : inactive
3. Cn1c(=O)n2n(c1=O)C1C(=CC2)C2C=CC1n1c(=O)n(C)c(=O)n12 (configuration not stated) : inactive
4. COC(=O)/C(C#N)=C(\Nc1ccccc1)N1CCCC1 : inactive
5. COc1ccc2nc3ccc(OC)cc3c(SCCO)c2c1 : inactive
6. O=C(N/N=C1\C(=O)Nc2c(Cl)cc(Cl)cc21)C(=O)Nc1cccc(C(F)(F)F)c1 : inactive
7. O=C(O)c1cc(O)c2c(c1)C([C@@H]1c3cccc(O)c3C(=O)c3c(O)cc(C(=O)O)cc31)c1cccc(O)c1C2=O (some centres not stated) : inactive
8. COC(=O)C12C3C4(C(=O)OC)C1C1(C(=O)OC)C2C3(C(=O)OC)C41C(=O)N(C(C)C)C(C)C (configuration not stated) : inactive
9. C=CCn1c(-c2ccc(Cl)cc2Cl)cs/c1=N\c1c(C)n(C)n(-c2ccccc2)c1=O : inactive
10. CCOc1c2ccsc2c(OCC)c2ccsc12 : inactive

In: Recorded call for CC(=O)OCC(=O)O[C@@H]1[C@H]2[C@@H](OC(=O)c3ccccc3)[C@@H](C)C[C@]2(O)[C@H](OC(C)=O)[C@@]2(C)C[C@]1(OC(C)=O)C[C@H]1C(=O)C(C)(C)[C@@H](OC(C)=O)[C@@H]12 ?
Out: inactive

In: Recorded call for O=C(c1ccccc1)c1ccc(N2C(=O)/C(=C/Cc3ccco3)N=C2c2ccccc2)c(N2C(=O)/C(=C/Cc3ccco3)N=C2c2ccccc2)c1 ?
Out: inactive

In: Recorded call for CCCCCCCCCCCCCCCCOCC(CC(F)(F)P(=O)(O)O)OC(C)=O (configuration not stated) ?
Out: inactive

In: Recorded call for Cc1cc(C(=C2C=CC(=N)C=C2)c2ccc(N)cc2)ccc1N ?
Out: active

In: Recorded call for CC(C)(C)OC(=O)NCC(CNC(=O)OC(C)(C)C)C(N)=O ?
Out: inactive

In: Recorded call for CC(C)C(Cl)CCC(C)(Cl)C(=O)CBr (configuration not stated) ?
Out: inactive

In: Recorded call for N=C1/C(=C/c2ccccc2)C(=O)N=C2SC=NN12 ?
Out: inactive

In: Recorded call for Cc1ccc(N(C)S(=O)(=O)c2ccc([N+](=O)[O-])cc2)cc1 ?
Out: inactive
